Hey, just so you know, these numbers are from ChEMBL document CHEMBL1132867.

Reported IC50 is given for each of the following molecules.
System: PC-3
Assay: Anti-proliferative activity of compound against human prostate cancer PC-3 by standard MTT assay
Assay type: functional, cell-based
Conditions: PC-3, Prostate gland

In the examples that follow, each entry is paired with its recorded IC50.
entrysmiles=O=S(=O)(CC[C@@H](O)[C@H]1CC[C@H](COCc2ccccc2)O1)c1ccccc1 subjectoftest=PC-3 result="> 250 µM"
entrysmiles=CCCCCCCCCCCC[C@@H](O)[C@H]1CC[C@H](CO)O1 subjectoftest=PC-3 result="171 µM"
entrysmiles=C[C@@H](O)[C@H]1CC[C@H](CO)O1 subjectoftest=PC-3 result="> 250 µM"

// switching to the query molecule
// query Suppose we examine the molecule `OC[C@H]1CC[C@H]([C@@H](O)CO)O1` ; what IC50 value has been reported?
// result > 250 µM
